Test: Pharmacokinetics in uninfected rats
Assay type: in vivo, rat
Conditions: male, Sprague-Dawley, rat; 25 mg/kg oral, plasma; read-out: AUC0–24 h
Description: The blood distribution, CNS disposition and pharmacokinetics of SCYX-7158 were evaluated in infected or non-infected rodents following intravenous or oral administration of compounds. Pharmacokinetics and bioavailability of SCYX-7158 were also evaluated in non-infected beagle dogs and cynomolgus monkeys. In-life phases of non-infected rodent studies were performed at Vivisource (Waltham, MA); studies in non-naïve cynomolgus monkeys were performed by SNBL USA (Everett, WA). […]
parameter-measured: AUC(0-t) (µg·h/mL)
// units = µg·h/mL; emit number, no label

Measured AUC(0-t) of CC1(C)OB(O)c2cc(NC(=O)c3ccc(F)cc3C(F)(F)F)ccc21 [SCYX-7158] : 291
